So I've got a bunch of binders here, and I need their pIC50 values.
- Tested on: purified MHC
- Protocol notes: competition with radiolabeled known MHC binding peptide for purified MHC
Notebook: values listed as pIC50 are -log10 of the concentration (mol/L).

Prompt line: Name the recorded pIC50 of the item PYSQPESPYMQPQPF [P3d (modified gluten peptide …)] in your answer.
Response line: 5.70

Prompt line: Given the binder PYPHPRLPYTQPQPF [P3c (modified gluten peptide …)] , write its reported pIC50.
Response line: 5.52

Prompt line: Recall and state the measured pIC50 for LQLQPFDQPRLPWPQ [P1f (modified gluten peptide …)] .
Response line: 5.26

Prompt line: Identify measured pIC50 corresponding to PYPHPWLRGPQPQPF [P3f (modified gluten peptide …)]
Response line: 6.06

Prompt line: Give the value of pIC50 reported for the following: LQLQPFWQPKLPGPQ [P1g (modified gluten peptide …)]
Response line: 4.95

Prompt line: Give a short answer stating reported pIC50 for KLPYPQGRLPGPQPQ [P2g (modified gluten peptide …)] .
Response line: 5.43
